// provenance: paper PMC9481026

assay: in vitro; conditions: African green monkey, CC50
observed-property: CC50

Sample records with CC50:
>>> df
                                   molecule  observed_property  reported_result
0  Cc1cc(O)c(=O)c(O)cc1C(=O)N1CCN(C(c2ccc(F)cc2)c2ccc(F)cc2)CC1               CC50         > 120 µM
1                O=C(Cc1ccccc1)Sc1cccccc1=O               CC50         > 120 µM
2          Cc1cc(O)c(=O)c(O)cc1C(=O)c1ccco1               CC50         > 120 µM
3  Cc1cc(O)c(=O)c(O)c(O)c1C(=O)c1ccc(-c2ccccc2)cc1               CC50            80 µM
4      O=C(/C=C/c1cccc(Br)c1)c1ccccc(=O)c1O               CC50         > 120 µM
5  NC(=O)c1ncn([C@@H]2O[C@H](CO)[C@@H](O)[C@H]2O)n1 [Ribavirin, reference compound]               CC50         > 120 µM
6             CCCCSc1ccc(SCCCC)c(O)c(=O)c1O               CC50         > 120 µM
7  C/C(=N\c1ccc(Cl)c(Cl)c1)c1c(C)cc(O)n(O)c1=O               CC50         > 120 µM

Tell me its CC50 given Cc1cc(O)c(=O)c(O)cc1C(=O)N[C@@H](CCC(=O)OC(C)(C)C)C(=O)OC(C)(C)C as the entry.
> 120 µM

Tell me its CC50 given Cc1cc(O)c(=O)c(O)cc1C(=O)c1ccccc1O as the entry.
> 120 µM

Tell me its CC50 given O=c1c(O)cccc(SCc2ccccc2)c1O as the entry.
> 120 µM

Tell me its CC50 given Cc1cc(O)c(=O)c(O)cc1S(=O)(=O)c1ccccc1 as the entry.
70 µM

====

Property: pEC50; scope: individual molecules
system: RVFV strain MP-12; test: microbe, parasite or virus in culture; type: cell-based, Rift Valley fever virus; conditions: Rift Valley fever virus, Vero, read-out: Vero EC50
pEC50 here is simply -log10 of the concentration when that concentration is written in mol/L.

Sample records with pEC50:
>>> df
                                   molecule  observed_property  reported_result
0  O=C(Cc1ccccc1)Sc1cccccc1=O [Compound 680]              pEC50             5.20
1  Cc1cc(O)c(=O)c(O)cc1C(=O)c1ccco1 [Compound 309]              pEC50             5.80
2  Cc1cc(O)c(=O)c(O)cc1C(=O)N[C@@H](CCC(=O)OC(C)(C)C)C(=O)OC(C)(C)C [Compound 867]              pEC50             5.06
3  CCCCNC(=O)c1cc(O)c(=O)c(O)cc1C [Compound 1039]              pEC50             5.05
4  C/C(=N\c1ccc(Cl)c(Cl)c1)c1c(C)cc(O)n(O)c1=O [Compound 670]              pEC50             4.85

// switching to the query molecule
Tell me its pEC50 given Cc1cc(O)c(=O)c(O)cc1C(=O)c1cccs1 [Compound 308] as the entry.
5.92

====

system: RVFV strain MP-12; assay: microbe, parasite or virus in culture; assay type: cell-based, Rift Valley fever virus; settings: read-out: A549 EC50
observed-property: pEC50
pEC50 here is simply -log10 of the concentration when that concentration is written in mol/L.

>>> print(df.to_string())
                                   compound  reported_result
0  CCc1cccc(N=C(C)c2c(C)cc(=O)n(O)c2O)c1 [Compound 518]             4.76
1   CCCCCCSc1cccc(O)c(=O)c1O [Compound 840]             4.81
2  CC(=O)c1c(C)cc(O)c(=O)c(O)c1-c1cccc2ccccc12 [Compound 331]             4.75
3  Cc1cc(O)c(=O)c(O)cc1C(=O)N1CCCCC1 [Compound 390]             5.03
4  CC(=O)c1c(C)cc(O)c(=O)c(O)c1-c1ccccc1 [Compound 330]             4.37

Tell me its pEC50 given CC[C@H](C)[C@H](NC(=O)OCC1c2ccccc2-c2ccccc21)C(=O)Sc1cccccc1=O [Compound 686] as the entry.
5.10

Tell me its pEC50 given CC(=Nc1ccc(C(F)(F)F)cc1)c1c(C)cc(=O)n(O)c1O [Compound 517] as the entry.
4.02

Tell me its pEC50 given O=C1C=CC(=O)c2ccccc21 [Compound 327] as the entry.
4.71

====

test system: A549 cells
Property: CC50; scope: individual compounds
Could you give me the number in µM? Just the number is fine.

Sample records with CC50:
>>> df
      compound_structure_string  observed_property  result_units  reported_result
0      CCCCCCSc1cccc(O)c(=O)c1O               CC50            µM              142
1  O=c1c(O)cccc(SCCc2ccccc2)c1O               CC50            µM               43

// switching to the query compound
Give reported CC50 for CC(=O)c1c(C)cc(O)c(=O)c(O)c1Br (A549 cells)
154

====

assay: in vitro; conditions: human
Property: CC50; scope: individual molecules
Could you give me the number in µM? Just the number is fine.

In [3]: df
Out[3]:
          compound_structure_string  observed_property  reported_result
0  Cc1cc(O)c(=O)c(O)cc1C(=O)c1ccco1               CC50             98.1

Tell me its CC50 given Cc1cc(O)c(=O)c(O)cc1C(=O)c1cccs1 as the entry.
119

====

For HepDES19, measured CC50 is reported for the entries below.
Could you give me the number in µM? Just the number is fine.

Sample records with CC50:
>>> print(df.to_string())
                                   compound  subject_of_test  reported_result
0                     O=C1C=CC(=O)c2ccccc21         HepDES19             18.5
1       Cc1ccc(/C=C/C(=O)c2ccccc(=O)c2O)cc1         HepDES19             18.7
2  CC(=Nc1ccc(C(F)(F)F)cc1)c1c(C)cc(=O)n(O)c1O         HepDES19               91

// switching to the query compound
Give reported CC50 for CC1=CC(O)N(O)C(O)=C1C(C)=Nc1ccccc1N (stereo not shown) (HepDES19)
14.4

====

Property: EC50; scope: individual compounds
system: RVFV MP-12; test: microbe, parasite or virus in culture; type: cell-based, Rift Valley fever virus; conditions: read-out: Estimated EC50
Could you give me the number in µM? Just the number is fine.

Sample records with EC50:
In [3]: df
Out[3]:
                  compound_structure_string  observed_property  reported_result
0    Cc1cc(O)c(=O)c(O)cc1C(=O)Nc1ccc(F)cc1F               EC50               17
1  CC(=Nc1ccc(C(F)(F)F)cc1)c1c(C)cc(=O)n(O)c1O               EC50               13
2                  CCCCCCSc1cccc(O)c(=O)c1O               EC50               14
3        CC(=Nc1ccccc1F)c1c(C)cc(=O)n(O)c1O               EC50               19

Tell me its EC50 given Cc1cc(O)c(=O)c(O)cc1C(=O)Nc1ccccc1 as the entry.
16

====

For Vero cells, measured CC50 is reported for the entries below.

Give reported CC50 for COc1ccc(CON=C(C)c2c[nH]c(=O)[nH]c2=O)cc1 (Vero cells)
1 µM

Give reported CC50 for CC(=O)c1c(C)cc(O)c(=O)c(O)c1-c1ccccc1 (Vero cells)
> 120 µM

Give reported CC50 for CC(=O)c1c(C)cc(O)c(=O)c(O)c1Br (Vero cells)
> 120 µM

Give reported CC50 for Cc1cc(O)c(=O)c(O)cc1-c1ccccc1 (Vero cells)
> 120 µM

====

system: RVFV MP-12; assay: microbe, parasite or virus in culture; type: cell-based, Rift Valley fever virus; details: read-out: Estimated EC50
observed-property: EC50

Tell me its EC50 given COc1ccc(/C=C/C(=O)c2ccccc(=O)c2O)cc1 as the entry.
2 µM

Tell me its EC50 given CC(=O)c1c(C)cc(O)c(=O)c(O)c1Br as the entry.
2 µM

Tell me its EC50 given Cc1cc(O)c(=O)c(O)cc1C(=O)NCCc1ccccc1 as the entry.
17 µM

Tell me its EC50 given COc1ccc(Cl)cc1C(=O)Sc1cccccc1=O as the entry.
> 2 µM

Tell me its EC50 given Cc1ccc(Sc2cccc(O)c(=O)c2O)cc1 as the entry.
8 µM

Tell me its EC50 given Cc1cc(O)c(=O)c(O)cc1C(=O)N1CCN(c2ccc([N+](=O)[O-])c3nonc23)CC1 as the entry.
19 µM

Tell me its EC50 given CC[C@H](C)[C@H](NC(=O)OCC1c2ccccc2-c2ccccc21)C(=O)Sc1cccccc1=O as the entry.
2.16 µM

Tell me its EC50 given O=c1nc(NO)ccn1[C@@H]1O[C@H](CO)[C@@H](O)[C@H]1O [EIDD-1931, β-D-N4-Hydroxycytidine, reference compound] as the entry.
5 µM

Tell me its EC50 given Cc1ccc(/C=C/C(=O)c2ccccc(=O)c2O)cc1 as the entry.
3 µM
